Target: T1, COVID-19 nucleocapsid protein (N-protein) (severe acute respiratory syndrome …, UniProt P0DTC9 1-419)
T1 construct: also called nucleocapsid protein (N-protein) of severe acute respiratory syndrome coronavirus 2 (SARS-CoV-2)
Experiment: bio-layer interferometry (BLI)
Recorded measurements of Kd, one per entry

- BINDER: "ACTTDFCNNRYVTQRCA (Ci, Cii and Ciii cysteines covalently bound to TBMT scaffold) [BCY17629]"
  Kd [nM]: 41.7
- BINDER: "LEQICVTDFCNNRYVVNRCA (Ci, Cii and Ciii cysteines covalently bound to TBMT scaffold) [BCY18985]"
  Kd [nM]: 28.1
- BINDER: "LSQPCLTDFCNNRYVVNRCA (Ci, Cii and Ciii cysteines covalently bound to TBMT scaffold) [BCY18991]"
  Kd [nM]: 10.6
- BINDER: "ACLAPGQRCNWTRVCA (Ci, Cii and Ciii cysteines covalently bound to TATA scaffold) [BCY17652]"
  Kd [nM]: 142
